assayTarget: HIV-1 Tat (Human immunodeficiency virus 1, UniProt P04608 P04608:1-86)
testSummary: competition; D1/2; unmodified 18+15 duplex 65 nM; 59-mer 18 nM
experimentalParameters: duplex with bulge
reportedMetric: pIC50
One number for each entry, as −log10 of the molar value.

Request: Which pIC50 is reported for this binder? 18+15 duplex 4-thioT-25 (dsRNA, 4-thio-2'-deoxythymidine at U25 (nt 10) [10 (strand 1, 4-thio-2'-deoxythymidine)]) RNA 1: AGCCAGAUUTGAGCAGCU RNA 2: AGCUGCUCUCUGGCU
Response: 7.92
